Target: BRD4 BD1 (Homo sapiens, UniProt O60885)
Construct: Protein BRD4 BD1 used in the assay was purchased from Active Motif (cat. 31380)
Test: HTRF in vitro enzyme activity assay, inhibition of BRD4 BD1 binding to acetylated H4 peptide
Conditions: IC50 values of the compounds against BRD4 BD1 binding; class symbols A/B/C
Parameter measured: IC50

// solved cases for IC50 follow
C[C@@H]1C(=O)N(C)c2ccc(N3C(=O)c4ccccc4C3c3cccnc3)nc2N1C (stereo partly drawn) [Example A48-P4]	≤ 10 nM
CCN1C(=O)C(C)N(C2CC2)c2nc(N3C(=O)c4ccccc4C3c3cccnc3)ccc21 (stereo not drawn) [Example A49-P4]	≤ 10 nM
CNC(=O)c1cccc2c1C(=O)N(c1ccc3c(n1)N(C)C(C)C(=O)N3C)C2c1ccccc1 (single isomer, unassigned) [Example A88-P4]	≤ 10 nM

# IC50 of C[C@@H]1C(=O)N(C)c2cnc(N3C(=O)c4cc(F)ccc4C3c3cccnc3)nc2N1C (single isomer, unassigned) [Example A97-P1] = ≤ 10 nM

# IC50 of CC1C(=O)N(C)c2c(F)cc(N3C(=O)c4ccccc4C3c3cccnc3)cc2N1C1CC1 (single isomer, unassigned) [Example A71-P4] = ≤ 10 nM

# IC50 of CNC(=O)c1cccc2c1C(=O)N(c1ccc3c(n1)N(C1CC1)C(C)C(=O)N3C)C2c1cccnc1 (single isomer, unassigned) [Example A83-P3] = ≤ 10 nM

----------
Molecular target: BRD4 BD1 (Homo sapiens)
Construct: Protein BRD4 BD1 used in the assay was purchased from Active Motif (cat. 31380); purchased Active Motif 31380
Assay: HTRF in vitro enzyme activity assay, inhibition of BRD4 BD1 binding to acetylated H4 peptide
Conditions: IC50 values of the compounds against BRD4 BD1 binding; class symbols A/B/C
Protocol: Effect Examples: In Vitro Enzyme Activity Assay Half inhibitory activity (IC50) of the compounds of the invention against the bromodomain protein BRD4 BD1 was determined in the present Examples. The compounds of the invention were tested for inhibitory activity against BRD4 BD1 with Homogeneous Time-Resolved Fluorescence (HTRF). 2. […] 6) 10 μL of detection mixture (2×) was added to each well, incubated at RT for 3 h. The mp value was read by microplate reader Envision with the following parameters: […]
Parameter measured: IC50

// solved cases for IC50 follow
[2H]C([2H])([2H])N1C(=O)C(C)N(C2CC2)c2nc(N3C(=O)c4ccccc4C3c3ccc(F)cc3)ccc21 (centres unmarked) [Example A51-P3]	≤ 0.01 µM
C[C@@H]1C(=O)N(C)c2cnc(N3C(=O)c4c(cccc4S(C)(=O)=O)C3c3cccnc3)nc2N1C (some centres unmarked) [Example A103-P1]	≤ 0.01 µM
C[C@H]1Oc2nc(N3C(=O)c4ccccc4C3c3ccc(F)nc3)ncc2N(C)C1=O (single isomer, unassigned) [Example A105-P1]	0.01 to 0.1 µM
CC1C(=O)N(C)c2ccc(N3C(=O)c4c(C(=O)O)cccc4C3c3ccc(F)cc3)nc2N1C1CC1 (single isomer, unassigned) [Example A81-P4]	≤ 0.01 µM

Next molecule, IC50 to be filled in.
# IC50 of C[C@@H]1C(=O)N(C)c2cnc(N3C(=O)c4ccccc4C3c3ccc(F)nc3)nc2N1C (single isomer, unassigned) [Example A91-P2] = ≤ 0.01 µM

----------
Molecular target: BRD4 BD1 (Homo sapiens)
Construct: Protein BRD4 BD1 used in the assay was purchased from Active Motif (cat. 31380)
Experiment: HTRF in vitro enzyme activity assay, inhibition of BRD4 BD1 binding to acetylated H4 peptide
Conditions: IC50 values of the compounds against BRD4 BD1 binding; class symbols A/B/C
Experimental: Effect Examples: In Vitro Enzyme Activity Assay Half inhibitory activity (IC50) of the compounds of the invention against the bromodomain protein BRD4 BD1 was determined in the present Examples. The compounds of the invention were tested for inhibitory activity against BRD4 BD1 with Homogeneous Time-Resolved Fluorescence (HTRF). 2. […] 6) 10 μL of detection mixture (2×) was added to each well, incubated at RT for 3 h. The mp value was read by microplate reader Envision with the following parameters: […]
pIC50: −log10 of the molar value.
Parameter measured: pIC50

CC1C(=O)N(C)c2cnc(N3C(=O)c4ccccc4C3c3ccc(C(F)(F)F)cc3)nc2N1C1CC1 (single isomer, unassigned)	≥ 8.00
CC1C(=O)N(C)c2ccc(N3C(=O)CCC3c3ccc(F)cc3F)nc2N1C1CC1 (single isomer, unassigned)	≥ 8.00
CC1C(=O)N(C)c2ccc(N3C(=O)c4ccccc4C3c3ccc(Cl)cc3)nc2N1Cc1ccccc1 (racemic)	7.00 to 8.00

# pIC50 of CC1Oc2nc(N3C(=O)c4ccccc4C3c3ccc(F)cc3)ccc2N(CC(F)(F)F)C1=O (single isomer, unassigned) [Example A120-P1] = 6.00 to 7.00

# pIC50 of CSc1cccc2c1C(=O)N(c1ccc3c(n1)N(C)[C@H](C)C(=O)N3C)C2c1cccnc1 (mixture of isomers) = ≥ 8.00

# pIC50 of CC1C(=O)N(C)c2cnc(N3C(=O)c4ccccc4C3c3cccnc3)nc2N1C1CC1 (single isomer, unassigned) = ≥ 8.00

----------
Biological target: BRD4 BD1 (Homo sapiens)
Construct: Protein BRD4 BD1 used in the assay was purchased from Active Motif (cat. 31380)
Experiment: HTRF in vitro enzyme activity assay, inhibition of BRD4 BD1 binding to acetylated H4 peptide
Settings: IC50 values of the compounds against BRD4 BD1 binding; class symbols A/B/C
Parameter measured: IC50

// solved cases for IC50 follow
CC1C(=O)N(C)c2ccc(N3C(=O)c4ccccc4C3c3ccc(F)cc3)nc2N1C1CCCC1 (racemic) [Example A38-P2]	≤ 10 nM
CC1C(=O)N(C)c2ccc(N3C(=O)c4sccc4C3c3cccnc3)nc2N1C1CC1 (single isomer, unassigned)	≤ 10 nM
CC1C(=O)N(C)c2ccc(N3C(=O)CCC3c3ccccn3)nc2N1C1CC1 (single isomer, unassigned) [Example A6-P1]	≤ 10 nM
CC1Oc2nc(-n3c(=O)c4ccccc4n3-c3ccc(Cl)cc3)ccc2N(C)C1=O (stereo not shown)	10 to 100 nM
CC1C(=O)N(C)c2ccc(N3C(=O)c4ccccc4C3c3ccc(F)cn3)nc2N1C1CC1 (single isomer, unassigned)	≤ 10 nM

Next compound, IC50 to be filled in.
# IC50 of CCN1c2nc(N3C(=O)CCC3c3ccc(F)cc3)ccc2N(C)C(=O)[C@H]1C (single isomer, unassigned) [Example A16-P1] = ≤ 10 nM

----------
Target: BRD4 BD1 (Homo sapiens, UniProt O60885)
Construct: Protein BRD4 BD1 used in the assay was purchased from Active Motif (cat. 31380)
Experiment: HTRF in vitro enzyme activity assay, inhibition of BRD4 BD1 binding to acetylated H4 peptide
Conditions: IC50 values of the compounds against BRD4 BD1 binding; class symbols A/B/C
Parameter measured: IC50

// solved cases for IC50 follow
CC1C(=O)N(C)c2cnc(N3C(=O)c4ccccc4C3c3ccccc3)nc2N1C1CC1 (single isomer, unassigned)	≤ 0.01 µM
CC1C(=O)N(C)c2ccc(N3C(=O)c4ccccc4C3c3ccc(Cl)cc3)nc2N1CCO (racemic)	≤ 0.01 µM
C[C@H]1Oc2nc(N3C(=O)c4cc(F)ccc4C3c3cccnc3)ncc2N(C)C1=O (some centres unmarked)	0.1 to 1 µM

# IC50 of CC1C(=O)N(C)c2ccc(N3C(=O)c4ccccc4C3c3ccccn3)nc2N1C1CC1 (single isomer, unassigned) = ≤ 0.01 µM

# IC50 of Cc1ccc(-n2c3ccccc3c(=O)n2-c2ccc3c(n2)N(C2CC2)C(C)C(=O)N3C)cn1 (single isomer, unassigned) [Example A50-P1] = ≤ 0.01 µM

# IC50 of C[C@@H]1C(=O)N(C)c2ccc(N3C(=O)c4cccnc4C3(O)c3ccccc3)nc2N1C (single isomer, unassigned) [Example A76-P1] = ≤ 0.01 µM

# IC50 of C[C@@H]1C(=O)N(C)c2cnc(N3C(=O)c4c(cccc4[S+](C)[O-])C3c3cccnc3)nc2N1C (some centres unmarked) [A102-P2/P3] = ≤ 0.01 µM

# IC50 of C[C@@H]1C(=O)N(C)c2ccc(N3C(=O)c4c(cccc4[S+](C)[O-])C3c3cccnc3)nc2N1C (single isomer, unassigned) [Example A63-P4] = ≤ 0.01 µM

# IC50 of C[C@H]1Oc2nc(N3C(=O)c4ccccc4C3c3ccc(Cl)cc3)ccc2N(C)C1=O (some centres unmarked) [Example A40-P1] = ≤ 0.01 µM

# IC50 of CC1C(=O)N(C)c2ccc(N3C(=O)c4ccccc4C3c3ccc(F)cc3)nc2N1C1CC1 (single isomer, unassigned) = ≤ 0.01 µM

# IC50 of CC1C(=O)N(C)c2ccc(-n3c(=O)c4ccccc4n3-c3ccc(Cl)cc3)nc2N1C1CC1 (single isomer, unassigned) [Example A12-P1] = ≤ 0.01 µM

# IC50 of C[C@@H]1C(=O)N(C)c2cnc(N3C(=O)c4c(cccc4C(C)(C)O)C3c3ccc(F)cc3)nc2N1C1CC1 (some centres unmarked) = ≤ 0.01 µM

# IC50 of COC(=O)c1cccc2c1C(=O)N(c1ccc3c(n1)N(C1CC1)C(C)C(=O)N3C)C2c1ccc(F)cc1 (single isomer, unassigned) = ≤ 0.01 µM

# IC50 of C[C@@H]1C(=O)N(C)c2cnc(N3C(=O)c4c(cccc4S(C)(=O)=O)C3(O)c3cccnc3)nc2N1C (some centres unmarked) = ≤ 0.01 µM

# IC50 of Cc1ccc(C2c3ccccc3C(=O)N2c2ccc3c(n2)O[C@H](C)C(=O)N3C)cn1 (single isomer, unassigned) [Example A112-P1] = ≤ 0.01 µM

# IC50 of CC1C(=O)N(C)c2ccc(N3C(=O)c4c(cccc4[S+](C)[O-])C3c3cccnc3)nc2N1C1CC1 (single isomer, unassigned) [Example A60-P1] = ≤ 0.01 µM

# IC50 of CC1C(=O)N(C)c2ccc(N3C(=O)c4ccccc4C3Cc3ccccc3)nc2N1C1CC1 (racemic) = 0.1 to 1 µM

# IC50 of CC1C(=O)N(C)c2ccc(N3C(=O)c4ccccc4C3c3cccnc3)nc2N1C1CC1 (centres unmarked) = ≤ 0.01 µM

# IC50 of CC1Oc2nc(N3C(=O)CCC3c3ccc(F)cc3)ccc2N(C)C1=O (single isomer, unassigned) [Example A21-P1] = ≤ 0.01 µM

# IC50 of C[C@H]1Oc2nc(N3C(=O)c4c(cccc4S(C)(=O)=O)C3c3cccnc3)ccc2N(C)C1=O (single isomer, unassigned) [Example A128-P1] = 0.01 to 0.1 µM

# IC50 of CC1C(=O)N(C)c2ccc(N3C(=O)c4cc(C(=O)O)ccc4C3c3ccc(F)cc3)nc2N1C1CC1 (centres unmarked) [A77-P1/P4] = ≤ 0.01 µM
